Values compiled from PubChem BioAssay (NCI).

# System: SK-MEL-28 melanoma
# testDescription: NCI-60 one-dose screen, 48 h (100 = growth as untreated, 0 = no growth, -100 = all killed)
# conditionNotes: 10 µM
This is part of a sample that, as a whole, favours compounds with a hit. Of some 83,000 tested, about 20% had one in any assay.
Parameter: growth. Scope: all listed entries.
The reply should contain only the number, in %.

molecule	measuredTarget	valueUnit	growth
Cc1cc(O)ccc1C1=NN(c2ccc(S(C)(=O)=O)cc2)C(=O)CC1	SK-MEL-28 melanoma	%	81.2
NS(=O)(=O)Oc1ccc(NC(=O)C2CCCCCC2)cc1	SK-MEL-28 melanoma	%	104
N#Cc1cnn(C(=O)c2nn(-c3ccc(Cl)cc3)cc2O)c1N	SK-MEL-28 melanoma	%	56.1
N#CC1=CC2CN(Cc3ccccc3)C1C1C(=O)N(c3ccccc3)C(=O)C21 (centres undefined)	SK-MEL-28 melanoma	%	102
Nc1ccc(/C=N/Nc2ccnc3c(O)cccc23)c2cccnc12	SK-MEL-28 melanoma	%	90.9

Bench note, SK-MEL-28 melanoma: Nc1ccc(CC[C@H]2CCC/C=C/[C@@H]3C[C@H](O)C[C@H]3[C@H](O)/C=C/C(=O)O2)cc1 , growth reads 5.16
